target: Dat (dopamine N-acetyltransferase), wild-type / full-length (Drosophila melanogaster); experiment: isothermal titration calorimetry
Sequence (Q94521 36-275): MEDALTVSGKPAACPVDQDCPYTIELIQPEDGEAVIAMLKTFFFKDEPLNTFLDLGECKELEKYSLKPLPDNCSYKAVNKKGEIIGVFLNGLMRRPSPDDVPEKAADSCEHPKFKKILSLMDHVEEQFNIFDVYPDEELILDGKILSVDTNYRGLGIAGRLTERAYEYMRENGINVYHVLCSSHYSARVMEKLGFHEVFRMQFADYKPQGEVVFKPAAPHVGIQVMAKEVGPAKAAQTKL
Record form. Attribute: Kd. Fill in for each entry.
All answers are understood in µM, so give the number only.

Form: Entry = CC(=O)SCCNC(=O)CCNC(=O)[C@H](O)C(C)(C)COP(=O)(O)OP(=O)(O)OC[C@H]1O[C@@H](n2cnc3c(N)ncnc32)[C@H](O)[C@@H]1OP(=O)(O)O | System = Dat (dopamine N-acetyltransferase), wild-type / full-length (Drosophila melanogaster) | Kd = ____
5.43

Form: Entry = NCCc1ccc(O)c(O)c1 | System = Dat (dopamine N-acetyltransferase), wild-type / full-length (Drosophila melanogaster) | Kd = ____
25.9

Form: Entry = NCCc1c[nH]c2ccc(O)cc12 | System = Dat (dopamine N-acetyltransferase), wild-type / full-length (Drosophila melanogaster) | Kd = ____
223

Where do these numbers come from? They come from paper PMC3429931.
